Cited source for all entries: PubChem BioAssay (NCI)

- Test system: SR leukemia
- assay protocol: NCI-60 one-dose screen, 48 h (100 = growth as untreated, 0 = no growth, -100 = all killed)
- condition notes: 10 µM unless noted
This is part of a sample that, as a whole, favours compounds with a hit. Of some 83,000 tested, about 20% had one in any assay.
Response field class: string, computed from recorded growth by ranges label 0 (below 20%), label 1 (20% to below 90%), label 2 (90% or more)

Qu. Class (by measured growth) for `COc1ccc(-c2csc(N(C(=O)N3CCN(c4cc5c(cc4F)c(=O)c(C(=O)O)cn5C4CC4)CC3)c3ccccc3)n2)cc1`
Ans. label 0

Qu. Class (by measured growth) for `CCOC(=O)C(=Cc1cccc(Br)c1)C(=O)OCC`
Ans. label 0

Qu. Class (by measured growth) for `CCN(CC)CCOc1ccc(-c2c(-c3ccccc3)c(=O)oc3ccccc23)cc1`
Ans. label 2

Qu. Class (by measured growth) for `CCCCC(=O)c1ccco1`
Ans. label 2

Qu. Class (by measured growth) for `CCN(CC)c1nc(SCc2ccccc2Cl)ncc1C`
Ans. label 2

Qu. Class (by measured growth) for `O=Cc1ccc([N+](=O)[O-])s1`
Ans. label 1

Qu. Class (by measured growth) for `COc1ccc(Cc2cc(-c3ccccc3)nn(Cc3ccccc3)c2=O)cc1OC`
Ans. label 1

Qu. Class (by measured growth) for `CCCCOC(=O)OCc1cc(=O)c(O)co1`
Ans. label 2

Qu. Class (by measured growth) for `COC(=O)c1cc(-c2ccc(OC)cc2)[nH]c1N/N=C/c1c(Cl)cccc1Cl`
Ans. label 0

Qu. Class (by measured growth) for `COc1ccc(/C=N/NC(=O)CCN2c3ccccc3Sc3ccccc32)cc1`
Ans. label 1

Qu. Class (by measured growth) for `COCCn1c(-c2csc(-c3cn(C)c4ccc(OC)cc34)n2)cc2cccnc21`
Ans. label 0

Qu. Class (by measured growth) for `OB(O)c1cccc(-c2nc3ccc4[nH]ncc4c3c3c2CCCC3)c1`
Ans. label 1

Qu. Class (by measured growth) for `CN1CCN(C(=O)c2ccc(NC(=O)Nc3ccc(-c4nc(N5CCOCC5)c5cccn5n4)cc3)cc2)CC1`
Ans. label 0

Qu. Class (by measured growth) for `O=C(O)CCCN1C(=O)/C(=C/C(Cl)=C/c2ccccc2)SC1=S`
Ans. label 0

Qu. Class (by measured growth) for CC[C@@H](C(=O)[C@@H](C)[C@@H](O)[C@H](C)[C@@H]1O[C@@H]([C@@H](CC)C(=O)NCCc2ccc(F)cc2)CC[C@@H]1C)C1O[C@]2(C=CC(=O)[C@]3(CC[C@@](C)([C@H]4CC[C@](O)(CC)[C@H](C)O4)O3)O2)[C@H](C)C[C@@H]1C (some centres undefined)
Ans. label 1

Qu. Class (by measured growth) for `Oc1ccc(CCn2c(O)c(/C=C3\CN=c4ccccc4=N3)sc2=S)cc1`
Ans. label 1

Qu. Class (by measured growth) for `CN1C(=O)/C(=C/c2ccc(C(=O)Nc3ncc(Cc4ccc(Cl)cc4)s3)cc2)SC1=S`
Ans. label 1

Qu. Class (by measured growth) for `C=CCc1c2c(c(OC)c3ccoc13)C(=O)/C(=C/c1ccccc1OC)O2`
Ans. label 1

Qu. Class (by measured growth) for `C[C@H](NC(=O)[C@@H](C)N)[C@H](Oc1ccc2c(cnn2-c2ccc(F)cc2)c1)c1ccc2c(c1)OCCO2`
Ans. label 0

Qu. Class (by measured growth) for `N=C(N)c1ccc(-c2ccc(-c3cc(Cl)cc(Cl)c3)o2)o1`
Ans. label 0

Qu. Class (by measured growth) for `O=[N+]([O-])c1ccc(-c2nc(N3CCOCC3)c3c4c(sc3n2)CCCC4)cc1`
Ans. label 1

Qu. Class (by measured growth) for O=C1CNC(c2ccccc2)C(c2ccccc2)N1 (centres undefined)
Ans. label 2

Qu. Class (by measured growth) for `O=C(Cn1cc(CN2C(=O)c3ccccc3S2(=O)=O)nn1)Nc1nc2ccccc2s1`
Ans. label 2

Qu. Class (by measured growth) for `CN1C(=O)/C(=C/c2cn(-c3ccccc3)nc2-c2ccccc2)SC1=S`
Ans. label 2

Qu. Class (by measured growth) for `C=C(C)[C@@H]1CC[C@]2(C(=O)NCC#CCN3CCN(C)CC3)CC[C@]3(C)[C@H](CC[C@@H]4[C@@](C)(CCC#N)[C@H](C(=C)C)CC[C@]43C)[C@@H]12`
Ans. label 0

Qu. Class (by measured growth) for `C[C@]12CC[C@@H]3c4ccc(O)c([N+](=O)[O-])c4CC[C@H]3[C@@H]1CCC2=O`
Ans. label 2

Qu. Class (by measured growth) for `Oc1c(Cl)cc(Cl)c2ccc(Cn3cc(-c4cc(C(F)(F)F)cc(C(F)(F)F)c4)nn3)nc12`
Ans. label 0

Qu. Class (by measured growth) for `C#Cc1cccc(Nc2ncnc3ccc(-c4cnc(N)nc4)cc23)c1`
Ans. label 1

Qu. Class (by measured growth) for `COc1cc(/C=C/C(=O)c2cccc(Nc3nc(Nc4ccccc4)nc(Nc4ccccc4)n3)c2)cc(OC)c1OC`
Ans. label 1

Qu. Class (by measured growth) for `Cc1c(-n2nnc(-c3nc4ccccc4s3)c2N)c(=O)n(-c2ccccc2)n1C`
Ans. label 2

Qu. Class (by measured growth) for `C1=C(N2CCCC2)CCC1`
Ans. label 2

Qu. Class (by measured growth) for `Fc1cc(F)cc(C(c2c[nH]c3ccccc23)c2c[nH]c3ccccc23)c1`
Ans. label 2

Qu. Class (by measured growth) for CCC(C)N(c1ccc(Cl)cc1)c1nc(-c2ccc(Br)cc2)cs1 (centres undefined)
Ans. label 1

Qu. Class (by measured growth) for `O=C(N/N=C/c1ccc(F)cc1)c1ccc(C(F)(F)F)nc1Nc1cccc(C(F)(F)F)c1`
Ans. label 0
